target: furin, P09958; assay: furin cleavage Z-score vs untreated control; higher = more cleavage, active = 3.5 or more, inactive = 1 or less, 8 variable residues between constant flanks; details: 15 min;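 note: purified furin at 1:10 enzyme:substrate in 50 mM HEPES pH 7.5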
Sequence (P09958 whole entry): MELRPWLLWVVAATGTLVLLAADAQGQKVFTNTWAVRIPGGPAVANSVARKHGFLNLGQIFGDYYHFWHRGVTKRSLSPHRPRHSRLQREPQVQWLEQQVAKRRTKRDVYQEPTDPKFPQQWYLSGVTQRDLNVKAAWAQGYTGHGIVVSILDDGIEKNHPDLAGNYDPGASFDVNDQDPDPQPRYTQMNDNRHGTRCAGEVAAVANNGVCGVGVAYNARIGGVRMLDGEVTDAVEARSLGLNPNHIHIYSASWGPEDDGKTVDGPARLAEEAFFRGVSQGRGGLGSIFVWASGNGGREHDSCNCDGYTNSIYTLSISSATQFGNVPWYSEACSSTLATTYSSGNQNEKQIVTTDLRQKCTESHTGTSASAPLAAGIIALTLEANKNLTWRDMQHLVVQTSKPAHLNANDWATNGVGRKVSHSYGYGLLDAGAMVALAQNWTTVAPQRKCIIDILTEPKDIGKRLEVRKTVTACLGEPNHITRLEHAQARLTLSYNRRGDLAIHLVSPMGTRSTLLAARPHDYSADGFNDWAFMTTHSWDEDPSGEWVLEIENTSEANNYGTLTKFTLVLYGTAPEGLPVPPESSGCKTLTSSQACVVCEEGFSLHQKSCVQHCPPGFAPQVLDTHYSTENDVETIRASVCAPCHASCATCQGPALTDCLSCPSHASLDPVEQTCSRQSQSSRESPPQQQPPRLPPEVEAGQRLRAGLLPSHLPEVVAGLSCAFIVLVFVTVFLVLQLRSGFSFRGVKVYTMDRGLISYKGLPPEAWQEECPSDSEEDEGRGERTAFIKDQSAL
Some of the results follow. The hit rate among all sequences tested is not known here.
Would you mind answering with one of these outcomes? 1 (yes) for active, 0 (no) for inactive

# example entries with known answers
CONSTRUCT SEQUENCE: CAPPQKAKRSAGNASASA [FS-70]
ASSIGNED LABEL: 1 (yes)

CONSTRUCT SEQUENCE: CALDVVCCSMAGNASASA [HC2105]
ASSIGNED LABEL: 0 (no)

CONSTRUCT SEQUENCE: CAEVPCHFPSAGNASASA [HC2367]
ASSIGNED LABEL: 0 (no)

CONSTRUCT SEQUENCE: CAGVRLHRFAAGNASASA [HC1224]
ASSIGNED LABEL: 0 (no)

CONSTRUCT SEQUENCE: CAPVVPQSFQAGNASASA [HC769]
ASSIGNED LABEL: 0 (no)

CONSTRUCT SEQUENCE: CAGYRRCRASAGNASASA [HC1508]
ASSIGNED LABEL: 0 (no)

Q: Please share the test call associated with CAEATTPCSGAGNASASA [HC1963] .
Result: 0 (no)
